Biological target: UniProt Q5NFN6
Sequence (Q5NFN6 1-265): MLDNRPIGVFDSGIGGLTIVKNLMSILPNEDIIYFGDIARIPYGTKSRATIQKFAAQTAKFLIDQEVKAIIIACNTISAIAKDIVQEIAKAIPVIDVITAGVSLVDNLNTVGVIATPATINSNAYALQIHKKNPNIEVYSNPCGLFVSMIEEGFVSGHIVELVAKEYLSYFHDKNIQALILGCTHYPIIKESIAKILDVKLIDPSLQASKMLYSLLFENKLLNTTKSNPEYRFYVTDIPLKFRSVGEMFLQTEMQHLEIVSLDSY
pIC50: −log10 of the molar value.
OUTCOME_MEASURE: pIC50

INSERT INTO assay_data (input_smiles, reported_result) VALUES
  ('O=S(=O)(O)c1nc2ccccc2[nH]1', 3.96);

###

Target: glutamate racemase (GR) from B. subtilis (Bacillus subtilis)
Sequence (P94556 whole entry): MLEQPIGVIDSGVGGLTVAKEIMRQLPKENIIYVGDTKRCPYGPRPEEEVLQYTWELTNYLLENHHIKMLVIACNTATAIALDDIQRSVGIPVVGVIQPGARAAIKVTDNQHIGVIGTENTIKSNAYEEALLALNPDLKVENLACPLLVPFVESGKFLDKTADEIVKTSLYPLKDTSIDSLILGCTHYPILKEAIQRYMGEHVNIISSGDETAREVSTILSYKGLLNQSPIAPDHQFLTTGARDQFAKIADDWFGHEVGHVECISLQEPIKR
Conditions: Ki converted into binding energy divided by number of non-hydrogen atoms
Measured LE (ligand efficiency) by item
OUTCOME_MEASURE: LE (ligand efficiency)

INSERT INTO results (compound, system, reported_result) VALUES
  ('CCCCNS(=O)(=O)c1ccc2[nH]c(S(=O)(=O)O)nc2c1 [Compound 18]', 'glutamate racemase (GR) from B. subtilis (Bacillus subtilis)', '0.30 kcal mol^−1 atom^−1'),
  ('Cc1ccc2[nH]c(S(=O)(=O)O)nc2c1 [Compound 15]', 'glutamate racemase (GR) from B. subtilis (Bacillus subtilis)', '0.46 kcal mol^−1 atom^−1'),
  ('O=S(=O)(O)c1nc2cc(S(=O)(=O)N3CCOCC3)ccc2[nH]1 [Compound 29]', 'glutamate racemase (GR) from B. subtilis (Bacillus subtilis)', '0.34 kcal mol^−1 atom^−1'),
  ('O=S(=O)(O)c1nc2ccc(Cl)cc2[nH]1 [Compound 26]', 'glutamate racemase (GR) from B. subtilis (Bacillus subtilis)', '0.48 kcal mol^−1 atom^−1'),
  ('O=C(c1ccccc1)c1ccc2[nH]c(S(=O)(=O)O)nc2c1 [Compound 24]', 'glutamate racemase (GR) from B. subtilis (Bacillus subtilis)', '0.20 kcal mol^−1 atom^−1');
